- assay_explanation: Half life in Beagle dog at 0.5 mg/kg, iv administered as 1 hr infusion on day 1 and day 7 to achieve a target dose of 1 mg/kg by LC-MS/MS analysis
- Assay type: ADME, organism-based, Canis lupus familiaris
- protocol_conditions: in vivo, dose 0.5-1 mg/kg, time 7 day
property_measured: half-life (min)

>>> observed("CNC(=O)c1cc(C(=O)N[C@H]2C[C@@H]2C)cc(Cc2cccc3[nH]ccc23)n1")
132
>>> observed("CNC(=O)c1cc(C(=O)NCCC[C@H]2OC[C@H](N)CO2)cc(Cc2ccccc2)n1")
54
>>> observed("CNC(=O)c1cc(C(=O)N[C@H]2[C@@H]3COC[C@@H]32)cc([C@@H](C)c2ccccc2)n1")
24

###

Reported solubility at 16 h values for a set of compounds
- assay_explanation: Solubility of the compound in pH 6.5 FaSSIF at […] measured after 16 hrs by HPLC analysis
- Type: physicochemical
property_measured: solubility at 16 h

>>> observed("CNC(=O)c1cc(Cc2ccccc2)nc(C(=O)NC)c1")
"> 1000 µg/mL"
>>> observed("CNC(=O)c1cc(C(=O)N[C@H]2[C@@H]3C[C@@H](O)C[C@@H]32)cc([C@@H](C)c2ccccc2)n1")
"744 µg/mL"
>>> observed("CNC(=O)c1cc(C(=O)N[C@H]2C[C@@H]2C)cc(Cc2ccccc2)n1")
"94 µg/mL"
>>> observed("CNC(=O)c1cc(C(=O)NC2CC2)cc([C@@H](O)c2ccccc2)n1")
"> 1000 µg/mL"
>>> observed("CNC(=O)c1cc(C(=O)NC2CC2)cc(Cc2cccc3c2CCN3)n1.Cl")
"953 µg/mL"
>>> observed("CNC(=O)c1cc(C(=O)N[C@H]2[C@@H]3COC[C@@H]32)cc(Cc2cccc3[nH]ccc23)n1")
"91 µg/mL"
>>> observed("CNC(=O)c1cc(C(=O)O)cc(Cc2ccccc2)n1")
"> 1000 µg/mL"

###

- assay_explanation: Permeability of the compound at pH 7.4 by artificial membrane permeability assay
- Format: ADME
- protocol_conditions: PAMPA, read-out: permeability
Reported Papp values for a set of compounds
property_measured: Papp

>>> observed("CNC(=O)c1cc(C(=O)N[C@H]2C[C@@H]2C)cc(Cc2cccc3[nH]ccc23)n1")
"18.3 ×10⁻⁶ cm/s"
>>> observed("CNC(=O)c1cc(C(=O)N[C@H]2C[C@@H]2C)cc([C@@H](O)c2ccccc2)n1")
"18.3 ×10⁻⁶ cm/s"
>>> observed("CNC(=O)c1cc(C(=O)NCCC[C@H]2OC[C@H](N)CO2)cc(Cc2ccccc2)n1")
"15 ×10⁻⁶ cm/s"
>>> observed("CNC(=O)c1cc(Cc2ccccc2)nc(C(=O)NC)c1")
"20 ×10⁻⁶ cm/s"
>>> observed("CNC(=O)c1cc(C(=O)NC2CC2)cn(Cc2cccc3[nH]ccc23)c1=O")
"17.8 ×10⁻⁶ cm/s"
